# System: Acinetobacter baumannii
# PROTOCOL DESCRIPTION: Antibacterial activity against Acinetobacter baumannii after 24 hrs by two fold serial dilution method
# Assay type: functional
List of MIC values.
ASSAY READOUT: MIC (µg/mL)

[
  {
    "SMILES REPR": "Cc1cc2ncn(CCn3cnc4c(N5CCOCC5)ncnc43)c2cc1C",
    "STUDY SYSTEM": "Acinetobacter baumannii",
    "ASSAY READOUT": "MIC",
    "RECORDED VALUE": 256
  },
  {
    "SMILES REPR": "Cc1nc2cc([N+](=O)[O-])ccc2n1CCn1cnc2c(N3CCOCC3)ncnc21",
    "STUDY SYSTEM": "Acinetobacter baumannii",
    "ASSAY READOUT": "MIC",
    "RECORDED VALUE": 32
  },
  {
    "SMILES REPR": "c1nc(N2CCOCC2)c2nc[nH]c2n1",
    "STUDY SYSTEM": "Acinetobacter baumannii",
    "ASSAY READOUT": "MIC",
    "RECORDED VALUE": 256
  },
  {
    "SMILES REPR": "CC(=O)c1nc2ccccc2n1CCn1cnc2c(N3CCOCC3)ncnc21",
    "STUDY SYSTEM": "Acinetobacter baumannii",
    "ASSAY READOUT": "MIC",
    "RECORDED VALUE": 64
  },
  {
    "SMILES REPR": "C#CCn1c(Cn2cnc3c(N4CCOCC4)ncnc32)nc2ccccc21",
    "STUDY SYSTEM": "Acinetobacter baumannii",
    "ASSAY READOUT": "MIC",
    "RECORDED VALUE": 256
  },
  {
    "SMILES REPR": "CCn1c(Cn2cnc3c(N4CCOCC4)ncnc32)nc2ccccc21",
    "STUDY SYSTEM": "Acinetobacter baumannii",
    "ASSAY READOUT": "MIC",
    "RECORDED VALUE": 256
  },
  {
    "SMILES REPR": "Cc1nc2ccccc2n1CCn1cnc2c(N3CCOCC3)ncnc21",
    "STUDY SYSTEM": "Acinetobacter baumannii",
    "ASSAY READOUT": "MIC",
    "RECORDED VALUE": 256
  },
  {
    "SMILES REPR": "Clc1cccc(Cn2c(Cn3cnc4c(N5CCOCC5)ncnc43)nc3ccccc32)c1",
    "STUDY SYSTEM": "Acinetobacter baumannii",
    "ASSAY READOUT": "MIC",
    "RECORDED VALUE": 256
  },
  {
    "SMILES REPR": "FC(F)(F)c1nc2ccccc2n1CCn1cnc2c(N3CCOCC3)ncnc21",
    "STUDY SYSTEM": "Acinetobacter baumannii",
    "ASSAY READOUT": "MIC",
    "RECORDED VALUE": 64
  },
  {
    "SMILES REPR": "Fc1ccccc1Cn1c(Cn2cnc3c(N4CCOCC4)ncnc32)nc2ccccc21",
    "STUDY SYSTEM": "Acinetobacter baumannii",
    "ASSAY READOUT": "MIC",
    "RECORDED VALUE": 128
  },
  {
    "SMILES REPR": "Fc1cccc(Cn2c(Cn3cnc4c(N5CCOCC5)ncnc43)nc3ccccc32)c1",
    "STUDY SYSTEM": "Acinetobacter baumannii",
    "ASSAY READOUT": "MIC",
    "RECORDED VALUE": 256
  }
]
